format: in vivo, human; settings: male, human, plasma, oral, 0.4 mg
quantity-name: k el

>>> print(df.to_string())
                            compound_string  quantity_name        result
0  CC(C)(NC(=O)C1=C(O)[C@@H]2Oc3c(O)ccc4c3[C@@]23CCN(CC2CC2)[C@H](C4)[C@]3(O)C1)c1nc(-c2ccccc2)no1           k el  1.81e-05 s⁻¹

###

type: in vivo, human; conditions: human, plasma, oral, 0.2 mg, AUC0–last, Cohort 2: naldemedine 0.2 mg alone or with fluconazole 200 mg; n = 14; mean (SD)
quantity-name: AUC(0-t) (ng·h/mL)

                            compound_string  quantity_name  unit_info  numeric_value
0  CC(C)(NC(=O)C1=C(O)[C@@H]2Oc3c(O)ccc4c3[C@@]23CCN(CC2CC2)[C@H](C4)[C@]3(O)C1)c1nc(-c2ccccc2)no1       AUC(0-t)    ng·h/mL           27.3

###

test: CYP3A inducer study: pharmacokinetics of naldemedine alone or with rifampin; assay type: in vivo, human; details: human, plasma, oral, 0.2 mg
quantity-name: Cmax (ng/mL)

                            compound_string  numeric_value
0  CC(C)(NC(=O)C1=C(O)[C@@H]2Oc3c(O)ccc4c3[C@@]23CCN(CC2CC2)[C@H](C4)[C@]3(O)C1)c1nc(-c2ccccc2)no1           2.72

###

type: in vivo, human; conditions: human, plasma, oral, 0.2 mg, AUC0–inf, Cohort 2: naldemedine 0.2 mg alone or with fluconazole 200 mg; n = 14; geometric mean (CV %)
quantity-name: AUC(0-inf) (ng·h/mL)

In [3]: df
Out[3]:
                                   compound  unit_info  numeric_value
0  CC(C)(NC(=O)C1=C(O)[C@@H]2Oc3c(O)ccc4c3[C@@]23CCN(CC2CC2)[C@H](C4)[C@]3(O)C1)c1nc(-c2ccccc2)no1 [Naldemedine]    ng·h/mL           27.2

###

assay type: in vivo, human; conditions: male, human, plasma, po, 0.4 mg
quantity-name: Tmax

>>> df
                            compound_string  result
0  CC(C)(NC(=O)C1=C(O)[C@@H]2Oc3c(O)ccc4c3[C@@]23CCN(CC2CC2)[C@H](C4)[C@]3(O)C1)c1nc(-c2ccccc2)no1  45 min

###

format: in vivo, human; details: human, plasma, oral, 0.2 mg
quantity-name: Cmax (ng/mL)

>>> print(df.to_string())
                                   compound  numeric_value
0  CC(C)(NC(=O)C1=C(O)[C@@H]2Oc3c(O)ccc4c3[C@@]23CCN(CC2CC2)[C@H](C4)[C@]3(O)C1)c1nc(-c2ccccc2)no1 [Naldemedine]           3.48

###

format: in vivo, human; details: human, plasma, oral, 0.2 mg
quantity-name: Cmax (ng/mL)

                            compound_string  numeric_value
0  CC(C)(NC(=O)C1=C(O)[C@@H]2Oc3c(O)ccc4c3[C@@]23CCN(CC2CC2)[C@H](C4)[C@]3(O)C1)c1nc(-c2ccccc2)no1           3.56

Reference source for all entries: paper PMC7242238
